EXPERIMENTAL TARGET: T1, human chemokine receptor type 4 (CXCR4) (human, UniProt P61073 1-352)
T1 construct: whole, on cells; also called CXCR4 receptor; CXCR4 chemokine receptor
T1 sequence (P61073 whole entry): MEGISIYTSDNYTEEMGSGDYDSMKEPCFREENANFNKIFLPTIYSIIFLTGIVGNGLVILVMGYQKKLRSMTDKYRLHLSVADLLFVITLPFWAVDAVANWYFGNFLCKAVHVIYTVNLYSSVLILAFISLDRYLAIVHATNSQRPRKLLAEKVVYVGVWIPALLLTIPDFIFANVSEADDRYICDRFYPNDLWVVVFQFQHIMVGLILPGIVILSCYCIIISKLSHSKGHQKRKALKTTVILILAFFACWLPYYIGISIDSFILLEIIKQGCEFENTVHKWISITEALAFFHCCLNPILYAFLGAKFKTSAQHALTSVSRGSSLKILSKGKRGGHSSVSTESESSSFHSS
TEST: competition with 125I-CPCR4 tracer on CXCR4-expressing cells
Square brackets hold non-standard residues; d marks the D form. nal = not defined here
QUANTITY NAME: IC50

get_value(item= cyclo([dY]RR[nal]AG) (reading uncertain; also: printed as cyc[D-Tyr-Arg-Arg-nal-Ala-Gly], differs by nal against Nal; also called BL 40) [cyc[D-Tyr-Arg-Arg-nal-Ala-Gly]] , readout=IC50) returns ~1000 nM
